Test system: DAN-G (Pancreatic Carcinoma)
Measurement description: combination Emax (second highest fraction inhibited in the dose matrix, 72 h); higher = more inhibition; extreme values may be limits of the assay
I'd be grateful if you could share measured combination Emax for these entries.
One number for each entry.

CC1(C)CCC(CN2CCN(c3ccc(C(=O)NS(=O)(=O)c4ccc(NCC5CCOCC5)c([N+](=O)[O-])c4)c(Oc4cnc5[nH]ccc5c4)c3)CC2)=C(c2ccc(Cl)cc2)C1 [Venetoclax] + C=CCn1c(=O)c2cnc(Nc3ccc(N4CCN(C)CC4)cc3)nc2n1-c1cccc(C(C)(C)O)n1 [AZD1775] (first compound max 1 µM, partner max 1 µM) : 0.747

For the next question, use this compound.
stdin: What does the data say about its combination Emax? Entry: COc1nnc2ccc(N3CCC(c4ccc(OCCN5CCN(C)C(=O)[C@H]5C)cc4)CC3)nn12 [AZD5153] + CC1(C)CCC(CN2CCN(c3ccc(C(=O)NS(=O)(=O)c4ccc(NCC5CCOCC5)c([N+](=O)[O-])c4)c(Oc4cnc5[nH]ccc5c4)c3)CC2)=C(c2ccc(Cl)cc2)C1 [Venetoclax] (first compound max 1 µM, 7x7, partner max 1 µM)
stdout: 0.268

* * *

Test system: JHH-4 (Hepatocellular Carcinoma)
Measurement description: combination Emax (second highest fraction inhibited in the dose matrix, 72 h); higher = more inhibition; extreme values may be limits of the assay
Measurement kind: combination Emax
Give bare numbers.

For each of the items listed, what is its combination Emax?
1. Cn1cnc2c(F)c(Nc3ccc(Br)cc3Cl)c(C(=O)NOCCO)cc21 [Selumetinib] + CCN(CCO)CCCOc1ccc2c(Nc3cc(CC(=O)Nc4cccc(F)c4)[nH]n3)ncnc2c1 [AZD2811] (first compound max 10 µM, 7x7, partner max 1 µM)
2. NC1(C(=O)N[C@@H](CCO)c2ccc(Cl)cc2)CCN(c2ncnc3[nH]ccc23)CC1 [Capivasertib] + CCN(CCO)CCCOc1ccc2c(Nc3cc(CC(=O)Nc4cccc(F)c4)[nH]n3)ncnc2c1 [AZD2811] (first compound max 10 µM, 7x7, partner max 1 µM)
3. COc1nnc2ccc(N3CCC(c4ccc(OCCN5CCN(C)C(=O)[C@H]5C)cc4)CC3)nn12 [AZD5153] + CN(CC[C@H](CSC1=CC=CC=C1)NC2=C(C=C(C=C2)S(=O)(=O)NC(=O)C3=CC=C(C=C3)N4CCC(CC4)[C@H](C5=CC=CC=C5C6=CC=C(C=C6)Cl)O)S(=O)(=O)C(F)(F)F)CCO [AZD4320] (first compound max 1 µM, 7x7, partner max 1 µM)
4. NC1(C(=O)N[C@@H](CCO)c2ccc(Cl)cc2)CCN(c2ncnc3[nH]ccc23)CC1 [Capivasertib] + CC(=O)c1c(C)c2cnc(Nc3ccc(N4CCNCC4)cn3)nc2n(C2CCCC2)c1=O [Palbociclib] (first compound max 10 µM, 7x7, partner max 10 µM)

stdout:
0.63
0.226
0.36
0.466

* * *

I'd be grateful if you could share measured combination Emax for these entries.
System: NCI-H520 (Squamous Cell Lung Carcinoma)
Measurement description: combination Emax (second highest fraction inhibited in the dose matrix, 72 h); higher = more inhibition; extreme values may be limits of the assay
Answers are plain numbers.

Check out these entries, answers already filled in.
Cc1c2c(nn1C)CSCc1cc(n(C)n1)CSc1cc(c3ccccc3c1)OCCCc1c(C(=O)O)n(C)c3c-2c(Cl)ccc13 [AZD5991] + Cn1cnc2c(F)c(Nc3ccc(Br)cc3Cl)c(C(=O)NOCCO)cc21 [Selumetinib] (first compound max 1 µM, 7x7, partner max 3 µM) : 0.176
CN(CCO)CC[C@H](CSc1ccccc1)Nc1ccc(S(=O)(=O)NC(=O)c2ccc(N3CCC([C@@H](O)c4ccccc4-c4ccc(Cl)cc4)CC3)cc2)cc1S(=O)(=O)C(F)(F)F [AZD4320] + Cn1cnc2c(F)c(Nc3ccc(Br)cc3Cl)c(C(=O)NOCCO)cc21 [Selumetinib] (first compound max 1 µM, 7x7, partner max 3 µM) : 0.203
CN(C)CCCOc1ccc(-c2ccc3ncc4c(c3c2)n(C2CCOCC2)c(=O)n4C)cn1 [AZD0156] + CCN(CCO)CCCOc1ccc2c(Nc3cc(CC(=O)Nc4cccc(F)c4)[nH]n3)ncnc2c1 [AZD2811] (first compound max 1 µM, 7x7, partner max 1 µM) : 0.458
Cn1cnc2c(F)c(Nc3ccc(Br)cc3Cl)c(C(=O)NOCCO)cc21 [Selumetinib] + C[C@@H]1COCCN1C2=NC(=NC(=C2)C3(CC3)[S@](=N)(=O)C)C4=C5C=CNC5=NC=C4 [AZD6738] (first compound max 10 µM, 7x7, partner max 10 µM) : 0.406

For each of the items listed, what is its combination Emax?
1. COc1cccc(OCCCN)c1-c1cc(Nc2cnc(C#N)cn2)n[nH]1 [Prexasertib] + C[C@@H]1COCCN1C2=NC(=NC(=C2)C3(CC3)[S@](=N)(=O)C)C4=C5C=CNC5=NC=C4 [AZD6738] (first compound max 1 µM, 7x7, partner max 10 µM)
2. CC1(C)CCC(CN2CCN(c3ccc(C(=O)NS(=O)(=O)c4ccc(NCC5CCOCC5)c([N+](=O)[O-])c4)c(Oc4cnc5[nH]ccc5c4)c3)CC2)=C(c2ccc(Cl)cc2)C1 [Venetoclax] + C1CN(CCC1(C(=O)N[C@@H](CCO)C2=CC=C(C=C2)Cl)N)C3=NC=NC4=C3C=CN4 [Capivasertib] (first compound max 1 µM, 7x7, partner max 3 µM)

stdout:
1: 0.775; 2: 0.609
